Examples of binders with documented Relative binding (%) follow.
TARGET SYSTEM: human HLA-A24 and β2-microglobulin (human)
PROTOCOL SUMMARY: MHC-peptide complex formation assay with human HLA-A24 and β2m (procedures of Example 1), sandwich ELISA, relative to positive control peptide
Write down the numeric answer in % and omit the unit.

Some solved cases for reference:
Specify Relative binding (%) for RFVWFFSGI [TAL6 peptide No. 6 of Table 2, …] and stop.
91.9

Specify Relative binding (%) for HIVEWNVSLF [TAL6 peptide No. 12 of Table 2, …] and stop.
28

Specify Relative binding (%) for TFASTEGQYL [TAL6 peptide No. 10 of Table 2, …] and stop.
116

Specify Relative binding (%) for HSLVGLALL [TAL6 peptide No. 2 of Table 2, …] and stop.
61.7

Specify Relative binding (%) for LYFPNGETKY [TAL6 peptide No. 4 of Table 2, …] and stop.
85

Next:
Specify Relative binding (%) for EWNVSLFSI [TAL6 peptide No. 14 of Table 2, …] and stop.
74
